Kd values recorded for UniProt:P00533
Sequence (P00533 25-1210): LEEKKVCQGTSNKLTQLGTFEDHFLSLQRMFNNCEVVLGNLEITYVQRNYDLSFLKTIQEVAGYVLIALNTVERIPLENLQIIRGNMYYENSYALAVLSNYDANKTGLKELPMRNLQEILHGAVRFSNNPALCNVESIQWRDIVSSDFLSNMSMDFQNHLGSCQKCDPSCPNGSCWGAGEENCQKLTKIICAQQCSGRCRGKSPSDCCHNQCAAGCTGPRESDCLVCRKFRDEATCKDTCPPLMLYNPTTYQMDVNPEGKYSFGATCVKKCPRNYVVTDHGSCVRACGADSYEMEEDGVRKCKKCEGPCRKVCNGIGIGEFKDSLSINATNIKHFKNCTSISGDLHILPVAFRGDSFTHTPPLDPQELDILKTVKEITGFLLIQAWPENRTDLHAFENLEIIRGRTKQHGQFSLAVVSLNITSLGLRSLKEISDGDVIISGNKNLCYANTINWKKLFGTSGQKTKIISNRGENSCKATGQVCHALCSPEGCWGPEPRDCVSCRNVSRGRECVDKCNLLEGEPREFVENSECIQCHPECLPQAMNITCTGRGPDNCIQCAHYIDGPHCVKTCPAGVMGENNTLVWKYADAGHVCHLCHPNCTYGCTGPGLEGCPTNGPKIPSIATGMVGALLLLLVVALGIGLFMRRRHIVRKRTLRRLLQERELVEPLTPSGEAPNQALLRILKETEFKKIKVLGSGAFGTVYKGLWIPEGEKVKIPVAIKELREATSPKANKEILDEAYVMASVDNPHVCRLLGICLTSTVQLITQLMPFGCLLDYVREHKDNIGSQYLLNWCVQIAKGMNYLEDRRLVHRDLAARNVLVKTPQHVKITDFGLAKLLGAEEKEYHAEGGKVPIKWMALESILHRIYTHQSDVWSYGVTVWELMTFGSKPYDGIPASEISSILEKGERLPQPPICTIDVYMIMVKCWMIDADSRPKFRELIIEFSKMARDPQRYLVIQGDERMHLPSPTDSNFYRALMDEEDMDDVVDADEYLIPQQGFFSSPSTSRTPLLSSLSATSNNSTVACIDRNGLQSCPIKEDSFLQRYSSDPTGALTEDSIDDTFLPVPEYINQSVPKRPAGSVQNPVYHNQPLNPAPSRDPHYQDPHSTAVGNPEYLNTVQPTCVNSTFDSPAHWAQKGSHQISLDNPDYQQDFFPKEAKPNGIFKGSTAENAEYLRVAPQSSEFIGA

Past entries and their recorded results:
[
  {
    "compound": "CC1(C)OC[C@@H](COc2cc3ncc(C#N)c(Nc4ccc(OCc5cccc(F)c5)c(Cl)c4)c3cc2NC(=O)CC2CCSS2)O1 (single isomer, unassigned; isomer 1) [84 isomer 1]",
    "property name": "Kd",
    "reported result": "1 to 99 nM"
  },
  {
    "compound": "CC1(C)OC[C@H](COc2cc3ncc(C#N)c(Nc4ccc(OCc5cccc(F)c5)c(Cl)c4)c3cc2NC(=O)C[C@H]2CCSS2)O1 (single isomer, unassigned; isomer 2) [80 isomer 2]",
    "property name": "Kd",
    "reported result": "1 to 99 nM"
  }
]

From here, focus on the item given below.
For CCOc1cc2ncc(C#N)c(Nc3ccc(OCc4cccc(F)c4)c(Cl)c3)c2cc1NC(=O)C(CSC(C)=O)CSC(C)=O on UniProt:P00533, measured Kd was 1 to 99 nM

All figures here come from patent US10246444B2.
